Target: T1, His-tagged human TREM2 ECD (human, UniProt Q9NZC2 19-172)
T1 construct: Biacore and HDX say only recombinant human TREM2 (ECD); also called recombinant human TREM2; hTREM2
T1 sequence: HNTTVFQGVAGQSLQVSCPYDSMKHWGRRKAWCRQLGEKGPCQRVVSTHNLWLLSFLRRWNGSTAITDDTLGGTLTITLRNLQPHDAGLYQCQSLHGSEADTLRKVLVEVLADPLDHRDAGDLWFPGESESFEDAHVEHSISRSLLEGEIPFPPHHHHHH
Assay: SPR (Biacore)
Below: a set of entries, each annotated with reported pKd.
Remember, pKd is on a log scale: it is -log10 of the molar concentration.

Use the examples below as a reference point.
INSERT INTO measurements (binder, experimental_endpoint, recorded_number) VALUES
  ('CL0020123-5 (antibody, V domains shown, Humanized variant of CL0020123 (hVH QGES/2 m, Vk graft); also called Clone CL0020123-5) VH: QVQLVQSGAEVKKPGASVKVSCKASGFSIEDFYIHWVRQAPGQGLEWMGWIDPEQGESKYAPKFQGRATITADTSTSTAYMELSSLRSEDTAVYYCHADHGNYGSTMDYWGQGTLVTVSS VL: DIQMTQSPSSLSASVGDRVTITCHASQHINVWLSWYQQKPGKAPKLLIYKASNLHTGVPSRFSGSGSGTDFTLTISSLQPEDFATYYCQQGQTYPRTFGQGTKVEIK', 'pKd', 9.36),
  ('CL0020188-2 (antibody, V domains shown, Humanized variant of CL0020188 (hVH NG/3 m, hVL NG/graft); also called Clone CL0020188-2) VH: EVQLVESGGGLVQPGGSLRLSCAGSGFTFTDFYMSWVRQAPGKGPEWLSVIRNKANGYTAGYNPSVKGRFTISRDNSKNTLYLQMNSLRAEDTAVYYCARLTYGFDYWGQGTLVTVSS VL: DIVMTQTPLSLPVTPGEPASISCQSSKSLLHSNGKTYLNWYLQKPGQSPQLLIYWMSTRASGVPDRFSGSGSGTDFTLKISRVEAEDVGVYYCQQFLEYPFTFGQGTKVEIK', 'pKd', 8.47);

--- query ---
# lookup: pKd of CL0020188-3 (antibody, V domains shown, Humanized variant of CL0020188 (hVH NG/graft, hVL TG/graft); also called Clone CL0020188-3) VH: EVQLVESGGGLVQPGGSLRLSCAASGFTFTDFYMSWVRQAPGKGLEWVSVIRNKANGYTAGYNPSVKGRFTISRDNSKNTLYLQMNSLRAEDTAVYYCARLTYGFDYWGQGTLVTVSS VL: DIVMTQTPLSLPVTPGEPASISCQSSKSLLHSTGKTYLNWYLQKPGQSPQLLIYWMSTRASGVPDRFSGSGSGTDFTLKISRVEAEDVGVYYCQQFLEYPFTFGQGTKVEIK 8.17
